experimentalSystem: T1, human VPAC2 receptor (human, UniProt P41587 24-438)
T1 construct: whole, on cells; Stably expressed in a CHO-S cell line
T1 sequence (looked up): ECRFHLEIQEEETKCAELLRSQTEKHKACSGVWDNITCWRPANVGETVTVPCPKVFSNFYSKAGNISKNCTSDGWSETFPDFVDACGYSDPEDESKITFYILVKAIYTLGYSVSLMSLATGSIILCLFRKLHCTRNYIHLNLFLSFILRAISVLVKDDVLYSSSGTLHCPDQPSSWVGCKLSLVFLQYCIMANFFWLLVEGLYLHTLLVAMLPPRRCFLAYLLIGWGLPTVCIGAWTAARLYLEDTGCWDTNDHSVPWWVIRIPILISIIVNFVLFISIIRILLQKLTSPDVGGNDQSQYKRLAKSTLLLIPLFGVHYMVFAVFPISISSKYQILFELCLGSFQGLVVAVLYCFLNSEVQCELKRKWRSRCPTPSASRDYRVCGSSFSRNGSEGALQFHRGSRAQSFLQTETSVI
assayOverview: filter binding, human VPAC2 membranes, competition with 125I-VIP;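 also: assay plate incubated 1 h with shaking, then filtered, with filter-retained counts measured after adding scintillant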
Numbered stars: 1 amine (or outer) side, 2 acyl side, 3 side chain; on linkers, the order of the positions; unused ones are H or OH. Square brackets hold non-standard residues; d marks the D form. Ends that are not written are not given here. * marks the point of attachment. Tyr(OMe) = O-methyl-tyrosine, COc1ccc(C[C@H](N[*:1])C(=O)[*:2])cc1; Orn = NCCC[C@H](N)C(=O)O; Hexanoyl = CCCCCC(=O)*; Aib = CC(C)(N)C(=O)O
measuredQuantity: pIC50
Units for pIC50: none; it is -log10 of a concentration expressed in mol/L.

Before answering, review these 6 worked examples.
| binder | measuredQuantity | valueMeasured |
| --- | --- | --- |
| HSDAVFTDNYTXLRXQSAAXKYLQSIXNXGGPSSGAPPPS (N-terminal hexanoyl (C6); Orn at 12, 27 and 29; Aib at 15 and 20) [VPAC2 receptor peptide agonist P389] | pIC50 | 9.09 |
| Hexanoyl-HSEAVFTENYT[Orn]LR[Aib]QVAA[Aib]KYLQSI[Orn]N[Orn]GGPSSGAPPPS [VPAC2 receptor peptide agonist P362] | pIC50 | 8.72 |
| Hexanoyl-HSDAVFTDQYTR[Aib]R[Aib]QVAA[Aib]KYLQSIK[Aib]KGGPSSGAPPPS [VPAC2 receptor peptide agonist P406] | pIC50 | 9.57 |
| Hexanoyl-HSDAVFTDNYTRLLAKLALQKYLQSI[Orn]N[Orn]GGPSSGAPPPS [VPAC2 receptor peptide agonist P370] | pIC50 | 9.10 |
| HSDAVFTDQYTXLRXQLAAXXYLQSIXXGGPSSGAPPPS (N-terminal hexanoyl (C6); Tyr(OMe) at 10; Orn at 12, 21, 27 and 28; Aib at 15 and 20) [VPAC2 receptor peptide agonist P394] | pIC50 | 9.39 |
| HSDAVFTDNYTXLRXQVASXKYLQSIXNXGGPSSGAPPPS (N-terminal hexanoyl (C6); Orn at 12, 27 and 29; Aib at 15 and 20) [VPAC2 receptor peptide agonist P387] | pIC50 | 8.86 |

Consider the binder Hexanoyl-HSDAVFTDQYT[Orn]LR[Aib]QVAA[Aib]KYLQSI[Orn]Q[Orn]GGPSSGAPPPS [VPAC2 receptor peptide agonist P363] and give its measured pIC50.
9.60

So what does the record say about pIC50 for HSDAVFTDNYTXLRXQVAAXKYSQSIXNXGGPSSGAPPPS (N-terminal hexanoyl (C6); Orn at 12, 27 and 29; Aib at 15 and 20) [VPAC2 receptor peptide agonist P384] ?
7.65

Look up pIC50 for this binder: HSDAVFTDNYTRLRXQVAAXKYLQSIKXXGGPSSGAPPPS (N-terminal hexanoyl (C6); Aib at 15, 20 and 28; Orn at 29) [VPAC2 receptor peptide agonist P357]
9.49

Entry under review: Hexanoyl-HSDAVFTDQ[Tyr(OMe)]TR[Aib]R[Aib]QLAA[Aib]KYLQSIK[Aib]KGGPSSGAPPPS [VPAC2 receptor peptide agonist P408] . Reported pIC50?
9.32

pIC50 lookup needed for HSDAVFTDNYTXLRXQVSAXKYLQSIXNXGGPSSGAPPPS (N-terminal hexanoyl (C6); Orn at 12, 27 and 29; Aib at 15 and 20) [VPAC2 receptor peptide agonist P388] , thanks.
7.00

Values were extracted from patent US20080194482A1.
